Listed below: Papp A→B values for each entry.
Conditions: Caco-2, Papp (AB), replicate 2
Where a SMILES comes first, the peptide text is derived from it. [ ]: non-standard residue; d: D form. Arg(ω,ω'-(C6H13OCO)2) = CCCCCCOC(=O)N=C(NCCC[C@H](N)C(=O)O)NC(=O)OCCCCCC

COMPOUND	Papp A→B
C[C@@H]1NC(=O)[C@H](C)NC(=O)[C@@H](C)N(C)C(=O)[C@H](C)N(C)C(=O)[C@H](C)NC(=O)[C@H](C)NC1=O	0.1 ×10⁻⁶ cm/s
CCCCCCOC(=O)N=C(NCCC[C@@H]1NC(=O)[C@H](Cc2ccccc2)NC(=O)[C@@H]2CCCN2C(=O)[C@@H]2CCCN2C(=O)[C@H](CC(C)C)NC(=O)[C@H](C)NC(=O)[C@H](CC(C)C)NC(=O)[C@H](CC(=O)OC)NC(=O)CNC1=O)NC(=O)OCCCCCC [AR372] (cyclo(ALPPF[Arg(ω,ω'-(C6H13OCO)2)]GD(OMe)L))	< 0.01 ×10⁻⁶ cm/s
CC(C)C[C@@H]1NC(=O)CNC(=O)[C@@H]2CCCN2C(=O)[C@@H]2CCCN2C(=O)[C@H](CC(C)C)NC(=O)[C@H](CC(=O)O)NC(=O)CNC(=O)[C@H](CCCNC(=N)N)NC1=O [FRX068] (cyclo(RGDLPPGL))	0.2 ×10⁻⁶ cm/s
CC(C)C[C@@H]1NC(=O)[C@H](CC(=O)O)NC(=O)CNC(=O)[C@H](CCCNC(=N)N)NC(=O)[C@H](Cc2ccccc2)NC(=O)[C@@H]2CCCN2C(=O)[C@@H]2CCCN2C(=O)[C@H](CC(C)C)NC(=O)[C@H](C)NC1=O [OM1186] (cyclo(RGDLALPPF))	< 0.3 ×10⁻⁶ cm/s
